B1: POU domain, class 3, transcription factor 2, residues 262 to 338; numbered along this chain, P20265 (parent)
chain: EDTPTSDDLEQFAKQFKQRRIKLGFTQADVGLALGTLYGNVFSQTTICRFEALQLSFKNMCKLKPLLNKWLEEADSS

# Variants of: B1
# method-summary: abundance fitness (aPCA) (normalised: wild type 0, dead -1); higher = more abundant; growth selection in yeast, the domain comes from the species named
# condition-description: Homo sapiens
assay-endpoint: abundance fitness
// return a plain number; no unit text

[Q] For the variant K64G , what abundance fitness is on record?
[A] -0.449

[Q] Do the same for L53H please
[A] -0.017

[Q] Do the same for G39F please
[A] -0.621

[Q] Do the same for K62W please
[A] -0.172

[Q] Do the same for Q54Y please
[A] -0.726

[Q] Do the same for L63E please
[A] -0.803

[Q] Do the same for Q54V please
[A] -0.535

[Q] Do the same for K17V please
[A] -0.316

[Q] Do the same for Q44F please
[A] -0.373

[Q] Do the same for S77C please
[A] -0.184

[Q] Do the same for I47Y please
[A] -0.339

[Q] Do the same for F25W please
[A] -0.149

[Q] Do the same for D75V please
[A] -0.135

[Q] Do the same for S56I please
[A] -0.662

[Q] Do the same for K58M please
[A] -0.12

[Q] Do the same for Y38W please
[A] -0.341

[Q] Do the same for K22C please
[A] -0.042

[Q] Do the same for L55Q please
[A] -0.506

[Q] Do the same for A74K please
[A] -0.037

[Q] Do the same for L55P please
[A] -0.586

[Q] Do the same for T36L please
[A] -0.194

[Q] Do the same for T26Q please
[A] -0.586

[Q] Do the same for M60T please
[A] -0.337

[Q] Do the same for L53A please
[A] 0.016

[Q] Do the same for N68V please
[A] 0.085

[Q] Do the same for G35E please
[A] -0.076

[Q] Do the same for F16A please
[A] -0.656

[Q] Do the same for G31P please
[A] -0.648

[Q] Do the same for N59F please
[A] -0.014

[Q] Do the same for L53S please
[A] -0.007

[Q] Do the same for K62I please
[A] -0.045

[Q] Do the same for Q18Y please
[A] -0.295

[Q] Do the same for L66F please
[A] -0.05

[Q] Do the same for S56R please
[A] -0.366

[Q] Do the same for E73D please
[A] 0.06

[Q] Do the same for S56L please
[A] -0.633

[Q] Do the same for R49E please
[A] 0.026

[Q] Do the same for F57P please
[A] -0.063

[Q] Do the same for F16D please
[A] -0.854

[Q] Do the same for Q27K please
[A] -0.132

[Q] Do the same for L55K please
[A] -0.409

[Q] Do the same for G39M please
[A] -0.624

[Q] Do the same for R20Q please
[A] -0.87

[Q] Do the same for G31Q please
[A] -0.188

[Q] Do the same for I21V please
[A] -0.058

[Q] Do the same for F50T please
[A] -0.682

[Q] Do the same for E72I please
[A] -0.102

[Q] Do the same for L34K please
[A] -0.441

[Q] Do the same for R19Q please
[A] -0.113

[Q] Do the same for L23P please
[A] -0.887

[Q] Do the same for E72A please
[A] -0.017

[Q] Do the same for L67F please
[A] -0.399

[Q] Do the same for L66V please
[A] -0.077

[Q] Do the same for R19Y please
[A] -0.695

[Q] Do the same for L71C please
[A] -0.847

[Q] Do the same for Q54G please
[A] -0.23

[Q] Do the same for S77K please
[A] -0.097

[Q] Do the same for Q15I please
[A] -0.068

[Q] Do the same for C61L please
[A] -0.001

[Q] Do the same for A28M please
[A] -0.208

[Q] Do the same for L23T please
[A] -0.486

[Q] Do the same for K14D please
[A] -0.012

[Q] Do the same for P65G please
[A] -0.108

[Q] Do the same for N68W please
[A] 0.004

[Q] Do the same for L63V please
[A] -0.263

[Q] Do the same for Y38Q please
[A] -0.141

[Q] Do the same for D29C please
[A] -0.542

[Q] Do the same for P65Q please
[A] 0.124

[Q] Do the same for S56N please
[A] -0.145

[Q] Do the same for V41C please
[A] 0.036

[Q] Do the same for F57S please
[A] -0.053

[Q] Do the same for Q44M please
[A] -0.145

[Q] Do the same for F50S please
[A] -0.821

[Q] Do the same for Q54N please
[A] -0.113

[Q] Do the same for S76A please
[A] 0.05

[Q] Do the same for T26E please
[A] -0.536

[Q] Do the same for F42G please
[A] -0.397

[Q] Do the same for E73V please
[A] -0.067

[Q] Do the same for W70F please
[A] -0.111

[Q] Do the same for V30M please
[A] -0.655

[Q] Do the same for T36G please
[A] -0.079

[Q] Do the same for L67V please
[A] -0.525

[Q] Do the same for G31T please
[A] -0.096

[Q] Do the same for E72R please
[A] -0.068

[Q] Do the same for I21N please
[A] -0.311

[Q] Do the same for I47L please
[A] -0.267

[Q] Do the same for L34V please
[A] -0.329

[Q] Do the same for G39K please
[A] -0.219

[Q] Do the same for S56Q please
[A] -0.385

[Q] Do the same for G35M please
[A] -0.174

[Q] Do the same for L23M please
[A] 0.048
